- Organism: Rattus norvegicus
- Protocol Description: DrugMatrix - Regimen: Daily Repeat
- Assay type: toxicity, organism-based, Sprague-Dawley
- Parameters: regimen Daily Repeat, gender Male, age 6-8 weeks
- Condition Details: in vivo, po, 1500 mg/kg, 72 h, tissue Plasma, route oral GAVAGE, dose level High, time 3 day, vehicle .5 % CMC
Property Name: CREATININE (mg/dL)
Give bare numbers, in mg/dL.

> print(dat)
                                 compound  property.name  reported.measurement
1  O=C1CCc2cc(OCCCCc3nnnn3C3CCCCC3)ccc2N1     CREATININE                   0.5

Hi! Can you tell me CREATININE for each of these compounds?
1. NS(=O)(=O)c1cc2c(cc1Cl)NCNS2(=O)=O [HYDROCHLOROTHIAZIDE]
2. COC(=O)c1ccc(O)cc1
3. CCOC(=O)[C@H](CCc1ccccc1)N[C@@H](C)C(=O)N1[C@H](C(=O)O)C[C@@H]2CCC[C@@H]21

Reply:
0.2
0.15
0.26

Reference for the values: ChEMBL document CHEMBL3885881
